Measured values drawn from PubChem BioAssay AID1159580 for this set.

# procedure_summary: chemical genetic growth profiling, strain panel (AID 1159580);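 also: tested at 20 µM; growth read once vehicle control cultures reached saturation at 30 °C; 1 = growth at the plate median or of vehicle wells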
# assay_context: S. cerevisiae deletion strains, growth OD, locus YER002W, strain NOP16, stronger effect = lower value
The whole screen tested about 5,500 compounds, of which about 2,000 (36%) were called active. Roughly 18% stayed inconclusive and do not appear here. Some of the results follow.
Lab note - cut at 1 for normalized growth: TRUE if strictly below, FALSE if not.

molecule	class_name
CC(=O)O[C@H]1CC2(C)[C@@H](C[C@@H](O)[C@H]3[C@@]4(C)CC[C@@H](O)[C@@H](C)[C@@H]4CC[C@@]32C)C1=C(CCC=C(C)C)C(=O)O (some centres undefined)	FALSE
O=c1[nH]c2ccccc2n1CCCN1CCN(C(c2ccccc2)c2ccccc2)CC1	FALSE
CCOC(=O)C1=C(C)NC(C)=C(C(=O)OC)C1c1cccc([N+](=O)[O-])c1 (centres undefined)	TRUE

====

# procedure_summary: chemical genetic growth profiling, strain panel (AID 1159580)
# assay_context: S. cerevisiae deletion strains, growth OD, locus YHR030C, strain SLT2
The whole screen tested about 5,500 compounds, of which about 2,000 (36%) were called active. Inconclusive results (about 18%) are left out. Rule as the data show it: active = normalized growth mostly below about 0.91 (no sharp cut-off); inconclusive = no clear call, values can overlap the other calls; inactive = mostly above about 0.92. The list shows a part of the results.
Outcomes: active, inactive

substance_smiles	class_name
CCCc1cc(C(=O)Nc2ccc(N(CC)CC)cc2)nn1-c1ccccc1	active
CC(=O)c1csc([N+](=O)[O-])c1	inactive
Cn1c([N+](=O)[O-])cnc1COC(N)=O	inactive
Nc1ccc(N2CCN(c3ccc(C(F)(F)F)cn3)CC2)nc1	active
COc1ccc(/C=N\NC(=O)CC#N)cc1OC	inactive
CCC(=O)Oc1ccc(NC(=S)NCCCO)cc1	inactive
O=C(Nc1ccc(Cl)cc1)c1csc([N+](=O)[O-])c1	active
COc1ccc(/C=C(\C#N)c2nc3ccccc3[nH]2)cc1OC	inactive
O=S(=O)(Nc1cc(-c2cccs2)nn1-c1ccc(I)cc1)c1cccc(F)c1	active
COc1ccc(/C(C#N)=C/c2ccc(OC)c(OC)c2)cc1	active
COc1cc(Cl)c(Cl)cc1Cl	inactive
COP(=S)(OC)Oc1cc(Cl)c(Cl)cc1Cl	active
Cc1oc(-c2ccc(Cl)cc2)cc1C(=O)N1CCN(c2ccc(C(F)(F)F)cn2)CC1	active
COc1ccc(-c2cc(NS(=O)(=O)c3cccc(F)c3)n(-c3ccc(Cl)c(Cl)c3)n2)cc1	active

====

# procedure_summary: chemical genetic growth profiling, strain panel (AID 1159580)
# assay_context: S. cerevisiae deletion strains, growth OD, locus YHR013C, strain ard1, stronger effect = lower value
The whole screen tested about 5,500 compounds, of which about 2,000 (36%) were called active. Inconclusive results (about 18%) are left out. This is one part of the list.
Each record here notes measured normalized growth.

compound	normalized growth
COc1cc(O)c(C)c(O)c1	1.01 (inactive)
CNC(=O)CSP(=S)(OC)OC	1.01 (inactive)
CC(C)(O)CC[C@@H](O)[C@](C)(O)C1CC[C@@]2(O)C3=CC(=O)C4C[C@@H](O)[C@@H](O)C[C@]4(C)C3CC[C@]12C (some centres undefined)	0.995 (inactive)
COc1cc(O)c(C(C)=O)c(OC)c1	1.01 (inactive)
CC(=O)O[C@H]1CC2CCC3C(CC[C@@]4(C)C3C[C@H]([N+]3(C)CCCCC3)[C@@H]4OC(C)=O)[C@@]2(C)C[C@@H]1[N+]1(C)CCCCC1 (some centres undefined)	1.01 (inactive)
O=C(/C=C/C(=O)Oc1ccccc1C(=O)O)Oc1ccccc1C(=O)O	0.984 (inactive)
COc1c(O)cc(O)cc1O	1.01 (inactive)
Cn1nnnc1SCC1=C(C(=O)O)N2C(=O)C(NC(=O)C(OC=O)c3ccccc3)C2SC1 (centres undefined)	1 (inactive)
CN1Cc2c(N)cccc2C(c2ccccc2)C1 (centres undefined)	0.995 (inactive)

====

# procedure_summary: chemical genetic growth profiling, strain panel (AID 1159580)
# assay_context: S. cerevisiae deletion strains, growth OD, locus YPL055C, strain LGE1, stronger effect = lower value
Hit rate of the full screen: of about 5,500 compounds, about 2,000 (36%) were called active. Another 18% or so got no clear call; they are omitted. Some of the results follow.
measured_metric: normalized growth

substance_smiles	measured_metric	assay_result
CCCCCc1ccc(S(=O)(=O)Nc2cccnc2Oc2ccc(Cl)cc2)cc1	normalized growth	0.989 (inactive)
c1coc(CNc2ncnc3nc[nH]c23)c1	normalized growth	0.978 (inactive)
COC(=O)c1ccccc1-n1cccc1C(=O)OC	normalized growth	0.972 (inactive)
COc1ccc(-n2nc(C(F)(F)F)cc2-c2ccc(Cl)cc2)cc1	normalized growth	1.02 (inactive)
O=[N+]([O-])c1cc(C(F)(F)F)ccc1NCCCn1ccnc1	normalized growth	0.991 (inactive)

====

# procedure_summary: chemical genetic growth profiling, strain panel (AID 1159580)
# assay_context: S. cerevisiae deletion strains, growth OD, locus YOR083W, strain WHI5 (second series), stronger effect = lower value
About 2,000 (36%) of roughly 5,500 compounds were called active. Another 18% or so got no clear call; they are omitted. The list shows a part of the results.
measured_metric: normalized growth

compound	assay_result
CCCN(CCC)[C@H]1CCc2c(F)ccc(O)c2C1	1.01 (inactive)
Cc1nccc2c1[nH]c1ccccc12	1.03 (inactive)
NC(N)=N[C@@H](CCC(=O)O)C(=O)O	1.04 (inactive)
CC12CCC3C(CCC4=C(O)C(=O)CCC43C)C1CCC2=O (stereo unspecified)	0.986 (inactive)
O=C(O)CNC(=O)C(CS)Cc1ccccc1 (stereo unspecified)	1.04 (inactive)
C=CCN1CC[C@]23CCCCC2[C@H]1Cc1ccc(O)cc13 (stereo partly specified)	1.01 (inactive)
C[N+](C)(C)CC=O	1.06 (inactive)
COC(=O)c1cc2c(cn1)[nH]c1ccccc12	0.96 (inactive)
COc1ccc2c3c1O[C@H]1C(=O)CC[C@@]4(O)C(C2)N(CC2CC2)CCC314 (stereo partly specified)	0.999 (inactive)
C/C=C(/C)C(=O)O[C@H]1C(C)=C2[C@H]([C@@H]1OC(=O)CCCCCCC)[C@@](C)(OC(C)=O)C[C@H](OC(=O)CCC)[C@@]1(O)[C@H]2OC(=O)[C@@]1(C)O	1 (inactive)
CC(=O)[C@H]1CC[C@H]2[C@@H]3CC[C@H]4C[C@H](O)CC[C@]4(C)[C@H]3C(=O)C[C@]12C	0.997 (inactive)

====

The entries below come with measured normalized growth values attached.
# procedure_summary: chemical genetic growth profiling, strain panel (AID 1159580);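 also: tested at 20 µM; growth read once vehicle control cultures reached saturation at 30 °C; 1 = growth at the plate median or of vehicle wells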
# assay_context: S. cerevisiae deletion strains, growth OD, locus YPR135W, strain CTF4, stronger effect = lower value
Screen size: about 5,500 compounds; about 2,000 (36%) were called active. About 18% were inconclusive and are not listed. This is one part of the list.
measured_metric: normalized growth

substance_smiles	assay_result
O=c1nc(-c2ccccc2)nc(-c2ccccc2)[nH]1	0.991
O=C(Oc1ccc(F)cc1)c1cccs1	1.01
S=c1nc(-c2ccccc2)[nH][nH]1	1.02
Cc1cc(N=CNO)c2ccccc2n1	0.955
CCCc1cc(C(=O)Nc2ccc(N(CC)CC)cc2)nn1-c1ccccc1	0.718
S=c1[nH]nc(-c2ccco2)n1-c1ccc2c(c1)OCCO2	1.06
COC(=O)c1c(OC)ccc(N=CNO)c1OC	1.07
COc1ccc(-n2c(SCc3ccc(Br)cc3)nnc2-c2ccco2)cc1	0.844
CCSC(SCC)[C@H](O)[C@@H](O)[C@H](O)CO	0.922
COc1ccc(/C=N\NC(=O)CC#N)cc1OC	1.29
Cc1ccc(C(=O)NNC(=O)c2ccncc2)c(C)c1	1.08
CSC(=Nc1ccc(C(C)C)cc1)NC#N	0.855
CC(=O)CSc1nsc(SCC(C)=O)c1C#N	0.918
O=S(=O)(O)c1cccc2cccc(Cl)c12	0.973
Cc1ccc(S(=O)(=O)/C(C#N)=N\O)cc1	0.906
O=C(NC(=S)Nc1ccc(Cl)cc1)c1ccc([N+](=O)[O-])o1	0.577
COC(=O)Cc1nc(NC(=O)c2ccccc2)sc1C	1
Cc1ccc(/C(C#N)=C2C=C/C(=N/O)C(Cl)=C\2Cl)cc1	0.681

====

# procedure_summary: chemical genetic growth profiling, strain panel (AID 1159580);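 also: tested at 20 µM; growth read once vehicle control cultures reached saturation at 30 °C; 1 = growth at the plate median or of vehicle wells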
# assay_context: S. cerevisiae deletion strains, growth OD, locus YPR167C, strain met16, stronger effect = lower value
About 2,000 (36%) of roughly 5,500 compounds were called active. Inconclusive results (about 18%) are left out. The list shows a part of the results.

substance_smiles	normalized growth
O=c1[nH]cnc2nc[nH]c12	0.965
CCS(=O)(=O)CCn1c([N+](=O)[O-])cnc1C	1.02
COc1cc(O)c(C(=O)c2ccccc2)c(OC)c1	0.978
Nc1ncnc2nc[nH]c12	0.976
COc1ccc2c(=O)c(-c3cc4c(cc3OC)OCO4)coc2c1	1.02

====

# procedure_summary: chemical genetic growth profiling, strain panel (AID 1159580);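 also: tested at 20 µM; growth read once vehicle control cultures reached saturation at 30 °C; 1 = growth at the plate median or of vehicle wells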
# assay_context: S. cerevisiae deletion strains, growth OD, locus YHR142W, strain chs7
Hit rate of the full screen: of about 5,500 compounds, about 2,000 (36%) were called active. Not shown: some 18% with an inconclusive outcome. No stated cut-off is given here; in the data, active means normalized growth mostly below about 0.91 (no sharp cut-off); inconclusive means no clear call, values can overlap the other calls; inactive means mostly above about 0.92. The list shows a part of the results.
Classes used: active, inactive

molecule	class_name
CC(C)=CCC/C(C)=C/COc1ccc2ccc(=O)oc2c1	inactive
N#Cc1ccc2c(c1)N(CCCN1CCC(O)CC1)c1ccccc1S2	inactive
CC(=O)O[C@@H]1CC2C(C)(C)[C@H](O)C[C@H](O)[C@]2(C)C2CC[C@@]3(C)C(=CC(=O)O[C@H]3c3ccoc3)[C@@]21C (stereo not given in full)	inactive
C[C@]12C=CC(=O)C=C1CCC1C2C(=O)C[C@@]2(C)C1CC[C@]2(O)C(=O)CO (stereo not given in full)	inactive
COc1cc2ccc(=O)oc2c(OC)c1OC	inactive
Cn1c(=O)[nH]c(=O)c2[nH]cnc21	inactive
CCNc1nc(Cl)nc(NC(C)C)n1	inactive
COc1cc2ccc(=O)oc2c2ccoc12	active
COc1c2c(cc3occ(-c4ccc5c(c4)OCO5)c(=O)c13)OC(C)(C)C=C2	active
CC(C)=CCOc1c2occc2cc2ccc(=O)oc12	active
Nc1ncnc2c1ncn2[C@@H]1O[C@H](CO)[C@@H](O)[C@@H]1O	inactive
COc1ccc(Cc2nccc3cc(OC)c(OC)cc23)cc1OC	inactive
CN1CCN(CCCN2c3ccccc3Sc3ccc(Cl)cc32)CC1	active
N#C/C(=C\c1ccc(O)cc1)C(=O)O	inactive
CC(C)=CCC1=C(O)c2ccccc2C(=O)C1=O	active
O=C(O)CCCN1C(=O)c2cccc3cccc(c23)C1=O	inactive
CCCCC/C=C\C/C=C\C/C=C\C/C=C\CCCC(=O)O	inactive
C=C1CC2C(CCC3(C)C(=O)CCC23)C2(C)C=CC(=O)C=C12 (stereo not given)	inactive
O=c1n(CCCN2CCN(c3cccc(Cl)c3)CC2)nc2ccccn12	inactive
COc1cc(O)c(C(=O)O)c(O)c1	inactive
C[N+]1(C)CCc2cc3c(cc2[C@H]1C1OC(=O)c2c1ccc1c2OCO1)OCO3 (stereo not given in full)	inactive
COc1cc(OC)c2c(c1Cl)OC1(C2=O)C(O)=CC(=O)CC1C (stereo not given)	inactive
COc1cc(OC)c2c(=O)c(-c3ccc4c(c3)OCO4)coc2c1	inactive
O=c1ccc2cc(O[C@@H]3O[C@H](CO)[C@@H](O)[C@H](O)[C@H]3O)c(O)cc2o1	inactive
Cc1nccc2c1[nH]c1ccccc12	inactive
CCOc1ccc(Cc2nccc3cc(OCC)c(OCC)cc23)cc1OCC	inactive
COc1ccc2ccc(=O)oc2c1CC=C(C)C	active
Nc1ncnc2nc[nH]c12	inactive
CC(=O)Oc1ccc2c(c1)CCC1C2CC[C@@]2(C)C1CC[C@@H]2OC(C)=O (stereo not given in full)	inactive
COc1cc2ccc(=O)oc2cc1O	inactive
C[C@]12CCC3c4ccc(O)cc4CCC3C1CC[C@@H]2OC(=O)CCC1CCCC1 (stereo not given in full)	inactive
CC(=O)Oc1ccc2c(c1)CCC1C2CCC2(C)C1CC(OC(C)=O)C2OC(C)=O (stereo not given)	inactive
c1ccc2c(c1)[nH]c1cnccc12	inactive
O=C(O)c1cc2cc(Cl)ccc2[nH]1	inactive
CC(=O)OC1CCC2C3CCc4cc(O)ccc4C3CCC12C (stereo not given)	inactive
